system: Pseudomonas aeruginosa 104; assay: minimal inhibitory concentration, agar dilution method; assay type: cell-based
REPORTED PROPERTY: MIC (µg/mL)

Would you please look over these solved cases?
| MOLECULE | U | MIC |
| --- | --- | --- |
| Cc1ccc2ncc(C(=O)N[C@@H](C(=O)N[C@@H]3C(=O)N4[C@@H]3SC(C)(C)[C@@H]4C(=O)O)c3ccc(O)cc3)c(O)c2n1 | µg/mL | 1.56 |
| COc1ccc2ncc(C(=O)N[C@@H](C(=O)N[C@@H]3C(=O)N4[C@@H]3SC(C)(C)[C@@H]4C(=O)O)c3ccc(O)cc3)c(O)c2n1 | µg/mL | 3.13 |
| CCOC(=O)Oc1ccc([C@@H](NC(=O)c2cnc3cn[nH]c3c2O)C(=O)N[C@@H]2C(=O)N3[C@@H]2SC(C)(C)[C@@H]3C(=O)O)cc1 | µg/mL | 6.25 |

a: CC1(C)S[C@@H]2[C@H](NC(=O)[C@H](NC(=O)c3cnc4ccccc4c3O)c3ccc(O)c(Cl)c3)C(=O)N2[C@H]1C(=O)O
b: CC1(C)S[C@@H]2[C@H](NC(=O)[C@H](NC(=O)c3cnc4cccnc4c3O)c3ccc(O)cc3)C(=O)N2[C@H]1C(=O)O
Of a and b , which carries the smaller reported MIC figure? Refer to your chosen item by its label in the answer.
b
(b: 1.56 µg/mL, a: 6.25 µg/mL)

###

test system: Pseudomonas aeruginosa 104; test: minimal inhibitory concentration, agar dilution method; type: cell-based
REPORTED PROPERTY: MIC (µg/mL)

Would you please look over these solved cases?
| COMPOUND | REPORTED PROPERTY | U | REPORTED |
| --- | --- | --- | --- |
| Cc1nc(C)c2c(O)c(C(=O)N[C@@H](C(=O)N[C@@H]3C(=O)N4[C@@H]3SC(C)(C)[C@@H]4C(=O)O)c3ccc(O)cc3)cnc2n1 [Example 31] | MIC | µg/mL | 3.13 |
| CCOC(=O)Oc1ccc([C@@H](NC(=O)c2cnc3cccnc3c2O)C(=O)N[C@@H]2C(=O)N3[C@@H]2SC(C)(C)[C@@H]3C(=O)O)cc1 [Example 9] | MIC | µg/mL | 3.13 |

I: CCOC(=O)Oc1ccc([C@@H](NC(=O)c2cnc3scnc3c2O)C(=O)N[C@@H]2C(=O)N3[C@@H]2SC(C)(C)[C@@H]3C(=O)O)cc1 [Example 42]
II: CC1(C)S[C@@H]2[C@H](NC(=O)[C@H](NC(=O)c3cnc4cc(C(F)(F)F)ccc4c3O)c3ccc(O)cc3)C(=O)N2[C@H]1C(=O)O [Example 11]
Of I and II , which carries the smaller reported MIC figure? Refer to your chosen item by its label in the answer.
I
(I: 6.25 µg/mL, II: 12.5 µg/mL)

###

tested on: Escherichia coli NIHJ
REPORTED PROPERTY: MIC (µg/mL)

| COMPOUND | EXPERIMENTAL TARGET | MIC (µg/mL) |
| --- | --- | --- |
| CC1(C)S[C@@H]2[C@H](NC(=O)C(NC(=O)c3ccccn3)c3ccccc3)C(=O)N2[C@H]1C(=O)O (some centres unmarked) [R, reference compound] | Escherichia coli NIHJ | 100 |
| CC1(C)S[C@@H]2C(NC(=O)C(N)c3ccc(O)cc3)C(=O)N2[C@H]1C(=O)O (some centres unmarked) [Amoxycillin, reference compound] | Escherichia coli NIHJ | 12.5 |
| CC1(C)S[C@@H]2C(NC(=O)C(N)c3ccccc3)C(=O)N2[C@H]1C(=O)O (some centres unmarked) [Ampicillin, reference compound] | Escherichia coli NIHJ | 6.26 |

a: COc1cnc2c(O)c(C(=O)N[C@@H](C(=O)N[C@@H]3C(=O)N4[C@@H]3SC(C)(C)[C@@H]4C(=O)O)c3ccc(O)cc3)cnc2n1 [Example 41]
b: CCOC(=O)Oc1ccc([C@@H](NC(=O)c2cnc3ccc(NC(C)=O)nc3c2O)C(=O)N[C@@H]2C(=O)N3[C@@H]2SC(C)(C)[C@@H]3C(=O)O)cc1 [Example 23]
Of a and b , which carries the smaller reported MIC figure? Refer to your chosen item by its label in the answer.
b
